Target: T1, Dimeric human CD48-mFc (human)
T1 chain: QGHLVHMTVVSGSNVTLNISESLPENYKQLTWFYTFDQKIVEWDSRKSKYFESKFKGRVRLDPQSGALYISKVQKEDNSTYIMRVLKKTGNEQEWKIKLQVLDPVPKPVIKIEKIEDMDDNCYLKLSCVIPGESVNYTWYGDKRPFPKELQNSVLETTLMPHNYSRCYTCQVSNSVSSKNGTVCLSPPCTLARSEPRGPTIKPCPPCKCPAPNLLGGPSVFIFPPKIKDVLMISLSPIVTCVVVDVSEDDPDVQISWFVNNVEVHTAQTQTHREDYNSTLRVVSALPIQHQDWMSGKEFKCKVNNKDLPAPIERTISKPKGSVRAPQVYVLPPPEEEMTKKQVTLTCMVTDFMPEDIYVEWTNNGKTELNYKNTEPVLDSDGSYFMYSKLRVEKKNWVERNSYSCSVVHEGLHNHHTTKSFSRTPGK
Assay: SPR (Biacore T100), 25 C, antibody captured by anti-Fc, dimeric CD48-mFc in solution
Procedure: Measurements were conducted on a T100-2 BIACORE™ instrument (Biacore Life Sciences division of GE Healthcare, Piscataway, N.J.). […] The soluble CD48 was applied to the flow cell in separate injections at different concentrations, and kinetic association (kₐ) and dissociation (kd) rate constants were determined by fits to the kinetic binding data using Biacore software. […]
pKd: −log10 of the molar value.
The following binders are listed with their measured pKd values.
MEASURED_METRIC: pKd

1) H2M1713N (antibody, mouse IgG2, V domains shown, Human variable domains, mouse IgG2 Fc (prefix H2M)) VH: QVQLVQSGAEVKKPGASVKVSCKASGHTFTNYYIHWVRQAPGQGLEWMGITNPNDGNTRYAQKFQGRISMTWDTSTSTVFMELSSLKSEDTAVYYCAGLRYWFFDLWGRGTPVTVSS VL: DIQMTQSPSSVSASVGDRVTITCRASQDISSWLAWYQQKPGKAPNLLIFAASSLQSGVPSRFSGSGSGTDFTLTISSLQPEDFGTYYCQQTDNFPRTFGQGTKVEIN = 10.87
2) H2M1811N (antibody, mouse IgG2, V domains shown, Human variable domains, mouse IgG2 Fc (prefix H2M)) VH: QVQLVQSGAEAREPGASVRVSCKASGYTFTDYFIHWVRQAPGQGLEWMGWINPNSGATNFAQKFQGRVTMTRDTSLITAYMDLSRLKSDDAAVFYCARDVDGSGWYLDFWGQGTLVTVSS VL: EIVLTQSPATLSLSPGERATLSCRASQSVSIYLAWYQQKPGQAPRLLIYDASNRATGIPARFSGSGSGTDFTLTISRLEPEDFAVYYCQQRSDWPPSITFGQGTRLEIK = 8.80
3) H4H1713N (antibody, human IgG4, V domains shown, Human IgG4 Fc (prefix H4H)) VH: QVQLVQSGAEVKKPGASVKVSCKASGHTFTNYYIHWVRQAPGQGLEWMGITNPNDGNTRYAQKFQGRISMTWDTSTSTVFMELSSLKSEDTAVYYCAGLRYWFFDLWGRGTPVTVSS VL: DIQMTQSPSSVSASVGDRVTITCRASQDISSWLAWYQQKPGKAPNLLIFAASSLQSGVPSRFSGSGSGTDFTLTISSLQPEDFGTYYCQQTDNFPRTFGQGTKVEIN = 10.67
